Parameter: IC50. Scope: all listed entries.
Biological target: GDP-bound KRAS protein (aa 1-169), containing both G12D and C118A amino acid substitutions (Homo sapiens, UniProt P01116, C118A/G12D)
Sequence (P01116 1-169 isoform P01116-2 G12D/C118A): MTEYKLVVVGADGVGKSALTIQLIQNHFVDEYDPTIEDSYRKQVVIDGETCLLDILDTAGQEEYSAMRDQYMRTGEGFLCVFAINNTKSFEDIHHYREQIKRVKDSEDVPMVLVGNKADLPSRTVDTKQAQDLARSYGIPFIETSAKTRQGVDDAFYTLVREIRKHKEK
Test: KRAS G12D Coupled Nucleotide Exchange Assay
Format: biochemical
All answers are understood in nM, so give the number only.

compound: CCc1c(F)ccc2cc(O)cc(-c3ccc4c(N5CCCC6(CNC6=O)C5)nc(OC[C@@]56CCCN5C[C@H](F)C6)nc4c3F)c12 (some centres unmarked)
reported.result: 7
//
compound: CCc1c(F)ccc2cc(O)cc(-c3c(F)cc4c(N5CCCC(O)(C(F)F)C5)nc(OC[C@@]56CCCN5C[C@H](F)C6)nc4c3F)c12 (single isomer, unassigned) [Example 21]
reported.result: 40
//
compound: CCc1c(F)ccc2cc(O)cc(-c3ccc4c(N5C[C@H](NC(=O)OC)CC(F)(F)C5)nc(OC[C@@]56CCCN5C[C@H](F)C6)nc4c3F)c12
reported.result: 3
//
compound: Cc1cc2[nH]ncc2c(-c2ccc3c(N4CCC[C@@](C)(O)C4)nc(OC[C@@]45CCCN4C[C@H](F)C5)nc3c2F)c1[C@H]1C[C@H]1C (single isomer, unassigned)
reported.result: 3

Turning now to a further compound:
# query: IC50 of entry CCc1c(F)ccc2cc(O)cc(-c3c(F)cc4c(N5CCCC(O)(C(F)F)C5)nc(OC[C@@]56CCCN5C[C@H](F)C6)nc4c3F)c12 (single isomer, unassigned) [Example 20]
2
